Before we begin, note that these IC50 values for Sphingosine 1-phosphate receptor 3 (Homo sapiens, UniProt Q99500) originate from several publications.

- molecule: "COc1cccc(-c2ccc(NC(=O)[C@@](C)(N)CO)cc2)c1"
  experimental.target: "Sphingosine 1-phosphate receptor 3 (Homo sapiens, UniProt Q99500)"
  IC50: "315 nM"
- molecule: "C[C@](N)(COP(=O)(O)O)C(=O)Nc1ccc(OCCc2ccc(-c3ccccc3)cc2)c(C(=O)O)c1"
  experimental.target: "Sphingosine 1-phosphate receptor 3 (Homo sapiens, UniProt Q99500)"
  IC50: "> 10000 nM"
- molecule: "C[C@](N)(COP(=O)(O)O)C(=O)Nc1ccc(-c2csc(-c3ccc(-c4ccccc4)cc3)n2)cc1"
  experimental.target: "Sphingosine 1-phosphate receptor 3 (Homo sapiens, UniProt Q99500)"
  IC50: "> 10000 nM"
- molecule: "Cc1ccccc1-c1ccc(CCOc2ccc(NC(=O)[C@@](C)(N)COP(=O)(O)O)cc2)cc1"
  experimental.target: "Sphingosine 1-phosphate receptor 3 (Homo sapiens, UniProt Q99500)"
  IC50: "0.001 to 100 nM"
- molecule: "CCCOc1cccc(-c2ccc(NC(=O)[C@@](C)(N)CO)cc2)c1"
  experimental.target: "Sphingosine 1-phosphate receptor 3 (Homo sapiens, UniProt Q99500)"
  IC50: "> 10000 nM"

# lookup: C[C@](N)(COP(=O)(O)O)C(=O)Nc1ccc(OCCc2ccc(-c3ccccc3)cc2)cc1 on Sphingosine 1-phosphate receptor 3 (Homo sapiens, UniProt Q99500), IC50 = 100 to 1000 nM

# lookup: C[C@](N)(COP(=O)(O)O)C(=O)Nc1ccc(OCCc2ccc(-c3ccccc3)cc2)c(Br)c1 on Sphingosine 1-phosphate receptor 3 (Homo sapiens, UniProt Q99500), IC50 = 100 to 1000 nM

# lookup: O=C(NC(Nc1ccc(Cl)cc1)C(F)(F)C(F)(F)F)c1ccc(Br)cn1 (single isomer, unassigned; (-)) on Sphingosine 1-phosphate receptor 3 (Homo sapiens, UniProt Q99500), IC50 = 1.3 nM

----------
Before we begin, note that these log10 of IC50 values for Sphingosine 1-phosphate receptor 3 (Homo sapiens, UniProt Q99500) originate from several publications.
Recall that a logarithmic scale is used here: each number is log10 of IC50 in nM.

Guide cases for log10 of IC50, answers given:
- compound: "CN(CCCO)Cc1ccc(-c2noc(-c3ccc(OCCF)c(C(F)(F)F)c3)n2)cc1F"
  log10 of IC50: 2.87
- compound: "Cc1cc(NC(=O)[C@@](C)(N)CO)ccc1Oc1ccccc1"
  log10 of IC50: 2.21
- compound: "O=C(NC(Nc1cnc(Cl)nc1)C(F)(F)C(F)(F)F)c1ccc(Br)cn1 (centres unmarked)"
  log10 of IC50: 0.30
- compound: "COc1cccc(C(=O)C(NC(=O)c2ccc(Br)cn2)Nc2ccc(Cl)cc2)c1 (centres unmarked)"
  log10 of IC50: 0.72
- compound: "CCc1ccc(OC[C@](C)(N)C(=O)Nc2ccc(Oc3ccc(CC)cc3)cc2)cc1"
  log10 of IC50: 2.92

# lookup: CCOc1ccc(-c2ccc(CCOc3ccc(NC(=O)[C@@](C)(N)CO)cc3)cc2)cc1 on Sphingosine 1-phosphate receptor 3 (Homo sapiens, UniProt Q99500), log10 of IC50 = 3.70

# lookup: O=C(NC(Nc1ccc(Cl)cc1)c1cc2ccccc2o1)c1ccc(Br)cn1 (centres unmarked) on Sphingosine 1-phosphate receptor 3 (Homo sapiens, UniProt Q99500), log10 of IC50 = 0.67
